Origin of measurements: ChEMBL document CHEMBL4342520

The following compounds are listed with their measured pIC50 values.
- targetEntity: Histone acetyltransferase p300 (Homo sapiens, UniProt Q09472)
- Sequence (Q09472 whole entry, the tested form may be a part): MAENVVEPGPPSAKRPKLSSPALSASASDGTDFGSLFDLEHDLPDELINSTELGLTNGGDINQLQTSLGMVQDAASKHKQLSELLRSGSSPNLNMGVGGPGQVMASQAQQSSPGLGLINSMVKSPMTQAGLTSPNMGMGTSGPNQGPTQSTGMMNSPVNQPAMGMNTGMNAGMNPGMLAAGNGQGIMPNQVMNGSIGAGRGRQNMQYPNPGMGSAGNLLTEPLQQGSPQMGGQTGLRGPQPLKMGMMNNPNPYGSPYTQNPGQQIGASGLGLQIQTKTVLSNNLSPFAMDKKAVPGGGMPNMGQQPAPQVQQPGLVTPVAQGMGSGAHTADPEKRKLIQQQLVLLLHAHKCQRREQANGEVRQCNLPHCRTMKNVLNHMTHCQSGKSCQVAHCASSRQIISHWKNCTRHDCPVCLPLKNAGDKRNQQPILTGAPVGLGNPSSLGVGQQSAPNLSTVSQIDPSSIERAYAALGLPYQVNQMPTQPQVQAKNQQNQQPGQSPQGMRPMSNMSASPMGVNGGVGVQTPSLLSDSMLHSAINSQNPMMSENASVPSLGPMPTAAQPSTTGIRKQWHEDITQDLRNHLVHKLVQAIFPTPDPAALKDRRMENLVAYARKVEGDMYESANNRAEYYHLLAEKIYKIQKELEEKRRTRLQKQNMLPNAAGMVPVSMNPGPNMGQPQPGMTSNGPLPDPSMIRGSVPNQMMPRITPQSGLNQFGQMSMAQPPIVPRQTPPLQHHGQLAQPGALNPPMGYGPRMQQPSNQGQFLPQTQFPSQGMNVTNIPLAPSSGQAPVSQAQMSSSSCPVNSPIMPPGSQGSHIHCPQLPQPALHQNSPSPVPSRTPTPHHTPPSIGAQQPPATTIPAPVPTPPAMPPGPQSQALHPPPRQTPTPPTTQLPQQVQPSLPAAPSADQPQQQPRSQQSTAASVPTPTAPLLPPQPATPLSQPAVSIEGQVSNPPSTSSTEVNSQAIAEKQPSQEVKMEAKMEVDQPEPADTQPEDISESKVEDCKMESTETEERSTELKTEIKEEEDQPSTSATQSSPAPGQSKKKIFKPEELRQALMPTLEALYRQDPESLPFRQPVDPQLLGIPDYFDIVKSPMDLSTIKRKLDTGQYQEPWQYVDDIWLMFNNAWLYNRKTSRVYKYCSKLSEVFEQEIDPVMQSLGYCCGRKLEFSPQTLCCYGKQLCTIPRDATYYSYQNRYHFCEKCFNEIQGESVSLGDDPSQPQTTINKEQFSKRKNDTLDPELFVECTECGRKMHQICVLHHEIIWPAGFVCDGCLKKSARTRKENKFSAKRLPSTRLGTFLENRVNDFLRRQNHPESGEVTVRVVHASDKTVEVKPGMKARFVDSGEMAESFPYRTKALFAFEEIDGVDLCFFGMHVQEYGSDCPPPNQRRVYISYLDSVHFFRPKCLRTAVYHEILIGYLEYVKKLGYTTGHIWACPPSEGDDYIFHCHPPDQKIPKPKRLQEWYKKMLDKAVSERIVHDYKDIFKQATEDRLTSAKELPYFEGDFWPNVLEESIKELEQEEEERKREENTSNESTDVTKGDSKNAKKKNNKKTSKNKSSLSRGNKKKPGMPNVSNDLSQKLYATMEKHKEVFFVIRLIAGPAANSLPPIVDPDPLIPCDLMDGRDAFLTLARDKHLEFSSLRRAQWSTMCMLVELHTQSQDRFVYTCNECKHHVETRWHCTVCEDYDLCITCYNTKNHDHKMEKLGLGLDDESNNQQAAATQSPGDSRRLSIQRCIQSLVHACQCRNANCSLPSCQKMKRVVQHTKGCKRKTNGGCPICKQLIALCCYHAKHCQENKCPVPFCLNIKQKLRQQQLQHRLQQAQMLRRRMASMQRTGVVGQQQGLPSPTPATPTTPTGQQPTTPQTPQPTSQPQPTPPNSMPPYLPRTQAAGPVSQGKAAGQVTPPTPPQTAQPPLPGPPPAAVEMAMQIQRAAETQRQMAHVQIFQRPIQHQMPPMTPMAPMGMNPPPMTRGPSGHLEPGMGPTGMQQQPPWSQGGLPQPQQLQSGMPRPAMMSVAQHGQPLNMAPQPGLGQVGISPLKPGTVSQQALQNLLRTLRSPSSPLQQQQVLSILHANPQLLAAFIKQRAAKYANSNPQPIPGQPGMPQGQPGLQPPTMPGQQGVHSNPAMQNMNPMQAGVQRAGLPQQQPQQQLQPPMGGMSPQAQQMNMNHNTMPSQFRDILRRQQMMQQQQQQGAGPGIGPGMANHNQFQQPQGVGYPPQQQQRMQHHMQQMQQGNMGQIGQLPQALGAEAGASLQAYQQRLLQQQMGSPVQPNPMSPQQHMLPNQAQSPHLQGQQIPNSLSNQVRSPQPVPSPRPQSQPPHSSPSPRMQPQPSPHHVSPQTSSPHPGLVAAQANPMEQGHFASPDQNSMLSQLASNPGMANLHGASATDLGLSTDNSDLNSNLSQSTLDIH
- experiment: Inhibition of recombinant human GST-tagged p300 HAT domain (1195 to 1673 residues) expressed in Escherichia coli BL21 codon plus cells using Histone H3 peptide (1 to 21) and [3H]acetyl-CoA as substrate preincubated with enzyme for 10 mins followed by substrate addition and measured after 30 mins by scintillation counting method
Keep it numeric: pIC50 is minus log10 of the concentration in mol/L.

Asked: State its pIC50 for this compound: CC(C)(C)c1ccc(-c2cc(CNCCCN)sc2-c2ccc(C(C)(C)C)cc2)cc1
Given back: 5.52

Asked: State its pIC50 for this compound: c1cc(-c2ccc(-c3cc(CNCC4CCNCC4)sc3-c3ccc(CN4CCCCC4)cc3)cc2)co1
Given back: 5.34

Asked: State its pIC50 for this compound: COc1ccc(-c2ccc(-c3cc(C(=O)NCC4CCNCC4)sc3-c3ccc(-c4ccc(OC)cc4)cc3)cc2)cc1
Given back: 5.55

* * *

- experiment: Inhibition of p300 HAT domain (1287-1652 residues) (unknown origin) harboring regulatory auto-acetylation loop deletion mutant and M1652G mutant using H4-15 peptide as substrate preincubated with enzyme and substrate for 10 mins followed by addition of [12C]acetylCoA and [14C]acetylCoA for 10 mins by phosphor-imaging analysis
- Design: species or system Homo sapiens
recordedMetric: IC50

Asked: State its IC50 for this compound: CC1=NN(c2ccc(C(=O)O)cc2)C(=O)/C1=C\c1ccc(-c2cc(C)c(C)cc2[N+](=O)[O-])o1
Given back: 1600 nM

* * *

- targetEntity: Histone acetyltransferase p300 (Homo sapiens, UniProt Q09472)
- experiment: Inhibition of recombinant human GST-tagged p300 HAT domain (1195 to 1673 residues) expressed in Escherichia coli BL21 codon plus cells at 10 uM using Histone H3 peptide (1 to 21) and [3H]acetyl-CoA as substrate preincubated with enzyme for 10 mins followed by substrate addition and measured after 30 mins by scintillation counting method relative to control
recordedMetric: inhibition (%)
Reply numerically in %, unit not repeated.

chemicalString: NCc1ccc(-c2cc(CNCC3CCNCC3)sc2-c2ccc(CN)cc2)cc1
targetEntity: Histone acetyltransferase p300 (Homo sapiens, UniProt Q09472)
scaleUnit: %
measured: 0

Asked: State its inhibition for this compound: CC(C)(C)c1ccc(-c2cc(COCC3CCNCC3)sc2-c2ccc(C(C)(C)C)cc2)cc1
Given back: 0

Asked: State its inhibition for this compound: CC(C)(C)c1ccc(-c2cc(CN3CCOCC3)sc2-c2ccc(C(C)(C)C)cc2)cc1
Given back: 20

Asked: State its inhibition for this compound: c1cc(-c2cc(CNCC3CCNCC3)sc2-c2ccoc2)co1
Given back: 23

Asked: State its inhibition for this compound: OCc1ccc(-c2cc(CNCC3CCNCC3)sc2-c2ccc(CO)cc2)cc1
Given back: 22

Asked: State its inhibition for this compound: CC(C)(C)c1ccc(-c2sc(CNCC3CCNCC3)cc2-c2ccc(CN)cc2)cc1
Given back: 35

Asked: State its inhibition for this compound: CC(C)(C)c1ccc(-c2csc(CNCC3CCNCC3)n2)cc1
Given back: 10

Asked: State its inhibition for this compound: c1ccc(-c2cccc(-c3cc(CNCC4CCNCC4)sc3-c3cccc(-c4ccccc4)c3)c2)cc1
Given back: 18

Asked: State its inhibition for this compound: CC(C)(C)c1ccc(-c2sc(C(=O)NCC3CCNCC3)cc2-c2ccoc2)cc1
Given back: 36

Asked: State its inhibition for this compound: COc1ccc(-c2cc(CNCC3CCNCC3)sc2-c2ccc(OC)c(OC)c2)cc1OC
Given back: 0

Asked: State its inhibition for this compound: CC(C)(C)c1ccc(-c2sc(C(=O)NCC3CCNCC3)cc2-c2cccnc2)cc1
Given back: 31

Asked: State its inhibition for this compound: CC(C)(C)c1ccc(-c2sc(C(=O)NCC3CCNCC3)cc2-c2ccc(CN3CCNCC3)cc2)cc1
Given back: 12

Asked: State its inhibition for this compound: CCCCc1ccc(-c2cc(CNCC3CCNCC3)sc2-c2ccc(CCCC)cc2)cc1
Given back: 10

* * *

- targetEntity: Histone acetyltransferase p300 (Homo sapiens)
- experiment: Inhibition of recombinant human GST-tagged p300 HAT domain (1195 to 1673 residues) expressed in Escherichia coli BL21 codon plus cells using Histone H3 peptide (1 to 21) and [3H]acetyl-CoA as substrate preincubated with enzyme for 10 mins followed by substrate addition and measured after 30 mins by scintillation counting method
The following compounds are listed with their measured IC50 values.
Reply numerically in µM, unit not repeated.

chemicalString: CC(C)(C)c1ccc(-c2nc(C(=O)NCC3CCNCC3)sc2-c2ccc(C(C)(C)C)cc2)cc1
IC50, µM: 2.4

Asked: State its IC50 for this compound: O=C(NCC1CCNCC1)c1cc(-c2ccc(CN3CCCCC3)cc2)c(-c2ccc(-c3ccoc3)cc2)s1
Given back: 1.6

Asked: State its IC50 for this compound: c1cc(-c2ccc(-c3cc(CNCC4CCNCC4)sc3-c3ccc(-c4ccoc4)cc3)cc2)co1
Given back: 1.7

Asked: State its IC50 for this compound: CC(C)(C)c1ccc(-c2sc(C(=O)NCC3CCNCC3)cc2-c2ccc(-c3ccoc3)cc2)cc1
Given back: 7.4

Asked: State its IC50 for this compound: CC(C)(C)c1ccc(-c2sc(CNCC3CCNCC3)cc2-c2ccc(-c3ccoc3)cc2)cc1
Given back: 5.8

* * *

- targetEntity: UniProt:Q09472
- experiment: Inhibition of recombinant human GST-tagged p300 HAT domain (1195 to 1673 residues) expressed in Escherichia coli BL21 codon plus cells using Histone H3 peptide (1 to 21) and [3H]acetyl-CoA as substrate preincubated with enzyme for 10 mins followed by substrate addition and measured after 30 mins by scintillation counting method
Binary label based on IC50 with cut-off 2 µM: below gives Yes, not below gives No.

chemicalString: CC(C)(C)c1ccc(-c2nc(CNCC3CCNCC3)sc2-c2ccc(C(C)(C)C)cc2)cc1
labelClass: No
--
chemicalString: CC(C)(C)c1ccc(-c2cc(COCC3CCNCC3)sc2-c2ccc(C(C)(C)C)cc2)cc1
labelClass: No
--
chemicalString: CC(C)(C)c1ccc(-c2cc(CNCCCCCCN)sc2-c2ccc(C(C)(C)C)cc2)cc1
labelClass: Yes
--
chemicalString: CC(C)(C)c1ccc(-c2cc(C(=O)NCC3CCNCC3)sc2-c2ccc(C(C)(C)C)cc2)cc1
labelClass: No
--
chemicalString: COc1ccc(-c2ccc(-c3cc(CNCC4CCNCC4)sc3-c3ccc(-c4ccc(OC)cc4)cc3)cc2)cc1
labelClass: No
--
chemicalString: CC(C)(C)c1ccc(-c2sc(CNCC3CCNCC3)c(Br)c2-c2ccc(C(C)(C)C)cc2)cc1
labelClass: Yes
--
chemicalString: CC(C)(C)c1ccc(-c2sc(C(=O)NCC3CCNCC3)cc2-c2cccnc2)cc1
labelClass: No

Below: the item to evaluate.
Asked: Field: below-cutoff. Rule: recorded IC50 strictly less than 2 µM. Subject: O=C(NCC1CCNCC1)c1cc(-c2ccc(-c3ccoc3)cc2)c(-c2ccc(-c3ccoc3)cc2)s1
Given back: Yes

* * *

- targetEntity: Histone acetyltransferase KAT2B (Homo sapiens, UniProt Q92831)
- Sequence (Q92831 whole entry): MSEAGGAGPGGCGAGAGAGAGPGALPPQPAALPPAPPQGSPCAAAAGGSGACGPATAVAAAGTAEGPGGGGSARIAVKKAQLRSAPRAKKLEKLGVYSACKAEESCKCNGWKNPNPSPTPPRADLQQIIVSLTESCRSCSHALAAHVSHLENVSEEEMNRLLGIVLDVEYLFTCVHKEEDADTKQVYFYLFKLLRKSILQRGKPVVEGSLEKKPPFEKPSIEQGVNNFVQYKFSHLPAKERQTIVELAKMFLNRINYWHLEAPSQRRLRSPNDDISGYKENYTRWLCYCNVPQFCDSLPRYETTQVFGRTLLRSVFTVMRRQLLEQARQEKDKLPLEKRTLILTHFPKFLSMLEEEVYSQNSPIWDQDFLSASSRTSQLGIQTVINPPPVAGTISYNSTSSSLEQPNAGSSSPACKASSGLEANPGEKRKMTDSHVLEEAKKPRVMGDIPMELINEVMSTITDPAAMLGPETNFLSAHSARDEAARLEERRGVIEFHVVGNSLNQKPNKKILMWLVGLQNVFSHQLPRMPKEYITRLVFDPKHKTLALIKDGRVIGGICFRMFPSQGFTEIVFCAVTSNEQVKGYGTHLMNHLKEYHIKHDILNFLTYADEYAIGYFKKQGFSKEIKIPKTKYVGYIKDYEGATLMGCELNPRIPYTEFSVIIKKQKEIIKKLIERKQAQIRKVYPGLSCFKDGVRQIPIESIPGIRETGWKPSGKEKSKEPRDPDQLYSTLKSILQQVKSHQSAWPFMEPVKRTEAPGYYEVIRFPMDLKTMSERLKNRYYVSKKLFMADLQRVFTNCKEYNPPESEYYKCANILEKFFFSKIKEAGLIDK
- experiment: Inhibition of recombinant human GST-tagged PCAF expressed in Escherichia coli BL21 codon plus cells using Histone H3 peptide (1 to 21) and [3H]acetyl-CoA as substrate preincubated with enzyme for 10 mins followed by substrate addition and measured after 30 mins by scintillation counting method
pIC50: −log10 of the molar value.
recordedMetric: pIC50

Asked: State its pIC50 for this compound: CC(C)(C)c1ccc(-c2cc(CNCC3CCNCC3)sc2-c2ccc(C(C)(C)C)cc2)cc1
Given back: < 4.30

* * *

- targetEntity: Histone acetyltransferase p300 (Homo sapiens)
- experiment: Inhibition of recombinant human GST-tagged p300 HAT domain (1195 to 1673 residues) expressed in Escherichia coli BL21 codon plus cells using Histone H3 peptide (1 to 21) and [3H]acetyl-CoA as substrate preincubated with enzyme for 10 mins followed by substrate addition and measured after 30 mins by scintillation counting method
The following compounds are listed with their measured IC50 values.

Asked: State its IC50 for this compound: c1cc(-c2cc(CNCC3CCNCC3)sc2-c2ccoc2)co1
Given back: > 10 µM

* * *

- targetEntity: CREB-binding protein (Homo sapiens)
- experiment: Inhibition of recombinant human GST-tagged CBP HAT domain expressed in Escherichia coli BL21 codon plus cells using Histone H3 peptide (1 to 21) and [3H]acetyl-CoA as substrate preincubated with enzyme for 10 mins followed by substrate addition and measured after 30 mins by scintillation counting method
recordedMetric: pIC50
Keep it numeric: pIC50 is minus log10 of the concentration in mol/L.

Asked: State its pIC50 for this molecule: CC(C)(C)c1ccc(-c2cc(CNCC3CCNCC3)sc2-c2ccc(C(C)(C)C)cc2)cc1
Given back: 5.92

* * *

- targetEntity: Histone acetyltransferase p300 (Homo sapiens)
- experiment: Inhibition of recombinant human GST-tagged p300 HAT domain (1195 to 1673 residues) expressed in Escherichia coli BL21 codon plus cells at 10 uM using Histone H3 peptide (1 to 21) and [3H]acetyl-CoA as substrate preincubated with enzyme for 10 mins followed by substrate addition and measured after 30 mins by scintillation counting method relative to control
The following compounds are listed with their measured inhibition values.
Reply numerically in %, unit not repeated.

chemicalString: CC(C)(C)c1ccc(-c2cc(CN3CCNCC3)sc2-c2ccc(C(C)(C)C)cc2)cc1
recordedMetric: inhibition
measured: 5

chemicalString: CC(C)(C)c1ccc(-c2csc(C(=O)NCC3CCNCC3)n2)cc1
recordedMetric: inhibition
measured: 18

Asked: State its inhibition for this compound: c1cc(-c2ccc(-c3ncc(CNCC4CCNCC4)nc3-c3ccc(-c4ccoc4)cc3)cc2)co1
Given back: 25
